Test system: KM12 colon
assay: NCI tumour cell line growth inhibition, 48 h
Listed next: entries and their corresponding GI50.
outcome_measure: GI50

> print(dat)
                                   compound  measured.on  endpoint.value
1               Oc1ccc(O)c(-c2cn3ccsc3n2)c1   KM12 colon         12.5 µM
2  COc1cc2nc(SCC(=O)Nc3cc(OC)c(OC)c(OC)c3)n(Cc3ccccc3)c(=O)c2cc1OC   KM12 colon        > 100 µM
3   Nc1nc2c(s1)CCc1c-2c(Br)n(Cc2ccccc2)c1Br   KM12 colon           14 µM
4  COc1ccc(C(=O)c2cc(OC)c(OC)c(OC)c2)cc1/C=C/C(=O)c1ccc(OC)c(OC)c1   KM12 colon         1.42 µM
5  CC(C)(C)C(=O)OCOP(=O)(OCOC(=O)C(C)(C)C)C1CC(O)N(O)C1=O (stereo not given)   KM12 colon         4.79 µM
